B1: Azoarcus group I ribozyme (parent)
chain: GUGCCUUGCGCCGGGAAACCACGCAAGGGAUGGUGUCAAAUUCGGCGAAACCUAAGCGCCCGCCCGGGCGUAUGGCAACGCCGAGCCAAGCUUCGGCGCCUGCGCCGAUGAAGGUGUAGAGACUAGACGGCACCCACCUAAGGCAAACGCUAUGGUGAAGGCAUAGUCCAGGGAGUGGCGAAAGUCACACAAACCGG

# Variants of: B1
# assay.method.text: reverse-splicing fitness (ratio to wild type); higher = more active; in vitro selection; Mg2+ level not given
Below, each entry is listed with its recorded reverse-splicing fitness.

sequence.change: C82A A120G A145U C150G C169A U176C
reverse-splicing fitness: 0.01
//
sequence.change: C82A A145G C150U U176G
reverse-splicing fitness: 0.0838
//
sequence.change: C82A A111U A145U C150G C169U
reverse-splicing fitness: 0.00971
//
sequence.change: C82G A111C A120U A145C C150G C169A U176A
reverse-splicing fitness: 0.00295
//
sequence.change: C82U A120C A145C C169G U176C
reverse-splicing fitness: 0.00783
//
sequence.change: C82U A111U A120G A145U C150A C169A U176C
reverse-splicing fitness: 0.0092
//
sequence.change: C82U A111U A120G C150G C169G U176G
reverse-splicing fitness: 0.00425
//
sequence.change: C82A A111C C150A
reverse-splicing fitness: 0.0239
//
sequence.change: C82A A111G A120G A145G C150G U176G
reverse-splicing fitness: 0.00568
//
sequence.change: A111U A120C A145C C150A C169U
reverse-splicing fitness: 0.013
//
sequence.change: C82G A111G A120C A145G C169U U176A
reverse-splicing fitness: 0.0142
